Ref: ChEMBL document CHEMBL5126531

# Test target: Ubiquitin-like modifier-activating enzyme ATG7 (Homo sapiens)
# Sequence (O95352 whole entry): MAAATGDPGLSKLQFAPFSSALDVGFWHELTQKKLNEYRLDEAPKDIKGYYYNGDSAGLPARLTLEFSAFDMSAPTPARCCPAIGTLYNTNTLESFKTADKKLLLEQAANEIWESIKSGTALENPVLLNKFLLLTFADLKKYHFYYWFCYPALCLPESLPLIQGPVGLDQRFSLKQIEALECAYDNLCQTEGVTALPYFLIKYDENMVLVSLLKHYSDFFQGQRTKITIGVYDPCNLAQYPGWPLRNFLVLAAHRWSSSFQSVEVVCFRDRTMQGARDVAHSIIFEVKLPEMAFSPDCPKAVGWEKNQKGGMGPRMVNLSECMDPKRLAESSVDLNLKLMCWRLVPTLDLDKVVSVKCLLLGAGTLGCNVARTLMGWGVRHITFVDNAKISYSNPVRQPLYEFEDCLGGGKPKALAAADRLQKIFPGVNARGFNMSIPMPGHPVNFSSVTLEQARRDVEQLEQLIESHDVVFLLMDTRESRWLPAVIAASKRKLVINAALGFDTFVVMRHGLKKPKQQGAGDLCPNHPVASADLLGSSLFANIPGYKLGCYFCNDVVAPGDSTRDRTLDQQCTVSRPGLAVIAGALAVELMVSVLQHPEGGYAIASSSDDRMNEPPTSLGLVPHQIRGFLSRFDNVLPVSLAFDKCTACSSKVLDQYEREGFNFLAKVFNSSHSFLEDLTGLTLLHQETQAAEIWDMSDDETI
Assay readout: IC50

Request: Fill blank: measured IC50 of the molecule NS(=O)(=O)OC[C@@H]1C[C@@H](n2ccc3c(N[C@H]4CCc5ccccc54)ncnc32)C[C@@H]1O is ____.
Response: > 10 µM
